Target: Cav2.2 (UniProt Q02294)
Experiment: Oocyte assay (Xenopus oocyte heterologous expression, current at fifth pulse P5)
Details: Xenopus oocytes; fifth pulse (P5) of 5 Hz train, holding potential −100 mV
Counter-ions that a name gives are not always drawn.
Readout type: IC50 (µM)

Before answering, review these 2 worked examples.
> print(dat)
                                   molecule  readout.type  reading
1  CN(c1ccccn1)c1nc(CN(C(=O)C(C)(C)C)c2ccc(F)cc2)cs1          IC50     22.8
2  CCN(CC)c1nc(CN(C(=O)C(C)(C)C)c2ccc(F)cc2)cs1          IC50     18.3

[A] CN1CCCN(c2ccc(CN(C(=O)C(C)(C)C)c3ccc(F)cc3)cn2)CC1
[B] CCC(C)(C)C(=O)N(Cc1ccc(N(C)CCc2ccccn2)nc1)c1ccc(F)cc1
[C] CC(C)(C)C(=O)N(Cc1cnc(N2CCCCC2)nc1)c1ccc(F)cc1 [Compound 8, hydrochloride]
(Q) Would you mind ranking these molecules by ascending IC50? I would appreciate it if you listed the labels in the requested order.
(A) B, C, A
